# Tested on: OVCAR-5 ovarian
# Assay protocol: NCI tumour cell line growth inhibition, 48 h
Measurement type: GI50

INPUT: Kindly indicate its recorded GI50. Item: CSc1ccc(C2=NN(C(C)=O)C(c3cc(C)cs3)C2)cc1 (stereo not given)
OUTPUT: 44.4 µM

INPUT: Kindly indicate its recorded GI50. Item: O=C(c1ccco1)c1nc2ccc(C(F)(F)F)cc2[n+]([O-])c1C(F)(F)F
OUTPUT: > 100 µM

INPUT: Kindly indicate its recorded GI50. Item: Cc1ccc(CS/C(=C\c2ccc([N+](=O)[O-])cc2)C(=O)c2ccc(F)cc2)cc1
OUTPUT: 2.6 µM

INPUT: Kindly indicate its recorded GI50. Item: N#C/C(=C1C=C/C(=N/O)C(Br)=C/1)c1ccccc1
OUTPUT: 2.6 µM

INPUT: Kindly indicate its recorded GI50. Item: O=C(O)CCCCC(CCSCc1ccccc1)SCc1ccccc1 (stereo not given)
OUTPUT: > 100 µM

Recorded values, source PubChem BioAssay (NCI).
